These entries and their values trace back to PubChem BioAssay.

Assay: TLR3 IRF3 reporter activation blockers – cell-based, poly I:C stimulus, luciferase, 10K MLSCN set, primary screen (AID 602277)
Conditions: HEK293-TLR3 RL24 IRF3 luciferase reporter, at 10 µM, hits give high values
Binary classification by inhibition, with 10% as an inclusive lower bound for yes (1); all other cases are no (0).

// known answers, use as guide
compound: CCCCCCn1c(SCCCC)nc2c1c(=O)[nH]c(=O)n2C
assigned label: yes (1)
--
compound: Cc1ccc(S(=O)(=O)N(C)CC(=O)NC2CCCC2)cc1
assigned label: yes (1)
--
compound: CCOC(=O)N1CCC(NC(=O)C2CCCN2C(=O)OCc2ccccc2)CC1 (stereo unspecified)
assigned label: no (0)
--
compound: COc1cc(OC)cc(-c2nnc(Nc3nc4c(F)cccc4s3)o2)c1
assigned label: yes (1)
--
compound: O=C(CCCCCn1c(=O)[nH]c2ccsc2c1=O)N1CCCCC1
assigned label: no (0)

Quick check: does O=C(CCC(=O)N1CCN(S(=O)(=O)c2ccccc2)CC1)c1cccs1 have inhibition greater than or equal to 10%?
no (0)

Quick check: does O=C(COC(=O)c1ccco1)NCc1cccs1 have inhibition greater than or equal to 10%?
no (0)

Quick check: does Cn1cnnc1SCC(=O)Nc1sc2c(c1C#N)CCCCC2 have inhibition greater than or equal to 10%?
no (0)
